Reported CC50 values follow for various compounds
procedure.text: in vitro
measurement.setup: African green monkey

# example entries with known answers
                                   compound  observed_value
0  CN(C)c1cccc([C@H]2C[C@@]3(C)[C@@H](CC[C@@]3(O)C#C[Si](C)(C)C)[C@@H]3CCC4=CC(=O)CCC4=C32)c1 [Compound 54]        > 100 µM
1  CN(C)c1ccc([C@H]2C[C@@]3(C)[C@@H](CC[C@@]3(O)C#Cc3ccccc3)[C@@H]3CC[C@@]4(O)CC5(CCC4=C32)OCCO5)cc1 [Compound 36]        > 100 µM

Now consider a different compound.
Incoming: Consider the compound CC(C)[Si](C#C[C@]1(O)CC[C@H]2[C@@H]3CCC4=CC(=O)CCC4=C3[C@@H](c3ccc(N(C)C)cc3)C[C@@]21C)(C(C)C)C(C)C [Compound 35] and give its measured CC50.
Outgoing: > 100 µM
